B1: tRNA (parent)
chain: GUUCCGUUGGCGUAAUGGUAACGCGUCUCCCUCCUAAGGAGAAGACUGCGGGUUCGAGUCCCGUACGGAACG

Variants of: B1
EXPERIMENTAL_PROTOCOL: yeast fitness relative to wild type (ratio to wild type); higher = fitter; tRNA-Arg(CCU), competitive growth, 37 C, YPD
Fewer inactive variants are shown than the library holds.
TEST_READOUT: yeast fitness
API doc: respond with a numeric literal and nothing else, no unit.

// worked examples, yeast fitness included
A21G C55U = 0.704
U53A C62G = 0.598
G6C C27U A45G U64A = 0.67
A14C A20C = 0.533
C29U G51A = 0.883
A45U A57G = 0.917
U2C G9C A69C = 0.524
A15U C62A = 0.624
A37G A42C = 0.806
A40C U59A = 0.801

Requested field: yeast fitness. Item: A15U G18C C24G C46A U64C A69G
0.513

Please give the result for C5G C49G too.
0.84

Please give the result for G12C C46A too.
0.928

Numbers sourced from the RNAGym collection of RNA variant scans (doi:10.1126/science.aae0568).
